assayMethodText: Pharmacokinetic study of Compound A succinate in cynomolgus monkeys
Assay type: in vivo
setupConditions: cynomolgus monkey, plasma, po; i.g. 24 mg/kg, male cynomolgus monkeys
observedProperty: AUC(0-t) (ng·h/mL)
Write the answer as a number in ng·h/mL, unit excluded.

Form field AUC(0-t), entry CCN1CCN(Cc2ccc(Nc3ncc(F)c(-c4sc(NC5CCCC5)nc4C)n3)nc2)CC1.O=C(O)CCC(=O)O [Compound A succinate] : 7370

###

assayMethodText: Pharmacokinetic study of Compound A succinate in cynomolgus monkeys
Assay type: in vivo
setupConditions: cynomolgus monkey, plasma, iv; i.v. 2 mg/kg, female cynomolgus monkeys
observedProperty: Cmax (ng/mL)
Write the answer as a number in ng/mL, unit excluded.

Form field Cmax, entry CCN1CCN(Cc2ccc(Nc3ncc(F)c(-c4sc(NC5CCCC5)nc4C)n3)nc2)CC1.O=C(O)CCC(=O)O [Compound A succinate] : 371

###

Recorded measurements of solubility at 24 h, one per entry
assayMethodText: Dynamic solubility in water and FaSSIF at 37° C.
Type: physicochemical
setupConditions: water, thermodynamic from solid, H2O, 24 hours, read-out: S: Solubility
Write the answer as a number in µg/mL, unit excluded.

Form field solubility at 24 h, entry CCN1CCN(Cc2ccc(Nc3ncc(F)c(-c4sc(NC5CCCC5)nc4C)n3)nc2)CC1.O=C(O)CCC(=O)O [Compound A succinate] : 2300

The record that follows has no solubility at 24 h shown yet.
Form field solubility at 24 h, entry CCN1CCN(Cc2ccc(Nc3ncc(F)c(-c4sc(NC5CCCC5)nc4C)n3)nc2)CC1 [Compound A] : 220

###

assayMethodText: Pharmacokinetic study of Compound A in male cynomolgus monkeys
Assay type: in vivo
setupConditions: cynomolgus monkey, plasma, iv, i.v. 5 mg/kg
observedProperty: Vd (L/kg)
Write the answer as a number in L/kg, unit excluded.

Form field Vd, entry CCN1CCN(Cc2ccc(Nc3ncc(F)c(-c4sc(NC5CCCC5)nc4C)n3)nc2)CC1 [Compound A] : 9.8

###

assayMethodText: Dynamic solubility in water and FaSSIF at 37° C.
Type: physicochemical
setupConditions: water, thermodynamic from solid, H2O, 2 hours, read-out: S: Solubility
observedProperty: solubility at 2 h (µg/mL)
Write the answer as a number in µg/mL, unit excluded.

Form field solubility at 2 h, entry CCN1CCN(Cc2ccc(Nc3ncc(F)c(-c4sc(NC5CCCC5)nc4C)n3)nc2)CC1.O=C(O)CCC(=O)O [Compound A succinate] : 2000

Continuing:
Form field solubility at 2 h, entry CCN1CCN(Cc2ccc(Nc3ncc(F)c(-c4sc(NC5CCCC5)nc4C)n3)nc2)CC1 : 240

###

assayMethodText: Hygroscopicity by dynamic moisture adsorption (DVS)
Assay type: physicochemical
Rule: yes for Moisture absorbed at 25° C./80% RH not less than 3%, no for anything less.

Solved entries (count: 4):
Kindly determine if Moisture absorbed at 25° C./80% RH recorded for CCN1CCN(Cc2ccc(Nc3ncc(F)c(-c4sc(NC5CCCC5)nc4C)n3)nc2)CC1.O=P(O)(O)O [Compound A phosphate] is above or exactly 3%.
yes

Kindly determine if Moisture absorbed at 25° C./80% RH recorded for CCN1CCN(Cc2ccc(Nc3ncc(F)c(-c4sc(NC5CCCC5)nc4C)n3)nc2)CC1.CS(=O)(=O)O [Compound A mesylate] is above or exactly 3%.
yes

Kindly determine if Moisture absorbed at 25° C./80% RH recorded for CCN1CCN(Cc2ccc(Nc3ncc(F)c(-c4sc(NC5CCCC5)nc4C)n3)nc2)CC1.O=C(O)CCC(=O)O [Compound A succinate] is above or exactly 3%.
no

Kindly determine if Moisture absorbed at 25° C./80% RH recorded for CCN1CCN(Cc2ccc(Nc3ncc(F)c(-c4sc(NC5CCCC5)nc4C)n3)nc2)CC1 is above or exactly 3%.
no

Continuing:
Kindly determine if Moisture absorbed at 25° C./80% RH recorded for CCN1CCN(Cc2ccc(Nc3ncc(F)c(-c4sc(NC5CCCC5)nc4C)n3)nc2)CC1.Cl [Compound A hydrochloride] is above or exactly 3%.
yes

###

assayMethodText: Pharmacokinetic study of Compound A succinate in cynomolgus monkeys
Format: in vivo
setupConditions: cynomolgus monkey, plasma, po; i.g. 24 mg/kg, female cynomolgus monkeys
observedProperty: half-life (h)
Write the answer as a number in h, unit excluded.

Form field half-life, entry CCN1CCN(Cc2ccc(Nc3ncc(F)c(-c4sc(NC5CCCC5)nc4C)n3)nc2)CC1.O=C(O)CCC(=O)O [Compound A succinate] : 6

###

Test system: U-87MG
assayMethodText: Thymidine incorporation (3H-TdR) anti-proliferative assay, U-87MG
Assay type: cell-based
setupConditions: Homo sapiens, Brain tumor
observedProperty: IC50 (nM)
Write the answer as a number in nM, unit excluded.

Form field IC50, entry CCN1CCN(Cc2ccc(Nc3ncc(F)c(-c4sc(NC5CCCC5)nc4C)n3)nc2)CC1.O=C(O)CCC(=O)O [Compound A succinate] : 42.6

###

Recorded measurements of solubility at 1 h, one per entry
assayMethodText: Dynamic solubility in water and FaSSIF at 37° C.
Type: physicochemical
setupConditions: water, thermodynamic from solid, H2O, 1 hour, read-out: S: Solubility
Write the answer as a number in µg/mL, unit excluded.

Form field solubility at 1 h, entry CCN1CCN(Cc2ccc(Nc3ncc(F)c(-c4sc(NC5CCCC5)nc4C)n3)nc2)CC1.O=C(O)CCC(=O)O [Compound A succinate] : 2000

The record that follows has no solubility at 1 h shown yet.
Form field solubility at 1 h, entry CCN1CCN(Cc2ccc(Nc3ncc(F)c(-c4sc(NC5CCCC5)nc4C)n3)nc2)CC1 [Compound A] : 220

###

assayMethodText: Pharmacokinetic study of Compound A succinate in cynomolgus monkeys
Assay type: in vivo
setupConditions: cynomolgus monkey, plasma, po; i.g. 24 mg/kg, female cynomolgus monkeys
observedProperty: Cmax (ng/mL)
Write the answer as a number in ng/mL, unit excluded.

Form field Cmax, entry CCN1CCN(Cc2ccc(Nc3ncc(F)c(-c4sc(NC5CCCC5)nc4C)n3)nc2)CC1.O=C(O)CCC(=O)O [Compound A succinate] : 532

###

assayMethodText: Pharmacokinetic study of Compound A succinate in cynomolgus monkeys
Assay type: in vivo
setupConditions: cynomolgus monkey, plasma, iv; i.v. 2 mg/kg, female cynomolgus monkeys
Protocol: In a separate study, four cynomolgus monkeys were divided into two groups (n=2 per group), and given Compound A succinate at 2 mg/kg by i.v. and 24 mg/kg by i.g., respectively. The plasma samples were collected, analyzed and PK parameters were calculated as above.
observedProperty: half-life (h)
Write the answer as a number in h, unit excluded.

Form field half-life, entry CCN1CCN(Cc2ccc(Nc3ncc(F)c(-c4sc(NC5CCCC5)nc4C)n3)nc2)CC1.O=C(O)CCC(=O)O [Compound A succinate] : 4.7

###

System: MDA-MB-435S
assayMethodText: Thymidine incorporation (3H-TdR) anti-proliferative assay, MDA-MB-435S
Format: cell-based
setupConditions: Homo sapiens, Breast cancer
observedProperty: pIC50
Scale: pIC50 equals -log10([C]), with [C] in mol/L.

Form field pIC50, entry CCN1CCN(Cc2ccc(Nc3ncc(F)c(-c4sc(NC5CCCC5)nc4C)n3)nc2)CC1.O=C(O)CCC(=O)O [Compound A succinate] : 7.43

###

assayMethodText: Hygroscopicity by dynamic moisture adsorption (DVS)
Assay type: physicochemical
setupConditions: 25° C./80% RH
observedProperty: Hygroscopicity

Form field Hygroscopicity, entry CCN1CCN(Cc2ccc(Nc3ncc(F)c(-c4sc(NC5CCCC5)nc4C)n3)nc2)CC1.Cl [Compound A hydrochloride] : Hygroscopic

Form field Hygroscopicity, entry CCN1CCN(Cc2ccc(Nc3ncc(F)c(-c4sc(NC5CCCC5)nc4C)n3)nc2)CC1.O=P(O)(O)O [Compound A phosphate] : Hygroscopic

###

assayMethodText: Pharmacokinetic study of Compound A in male cynomolgus monkeys
Type: in vivo
setupConditions: cynomolgus monkey, plasma, iv, i.v. 5 mg/kg
Procedure: Two groups of male cynomolgus monkeys (n=3 per group) were given Compound A by a single intravenous injection (i.v.) of 5 mg/kg, or intragastric administration (i.g.) of 50 mg/kg. Blood samples were collected at different time points. The exposure of Compound A in plasma samples were measured by LC-MS/MS method, and PK parameters (Table 8) were calculated using Phoenix WinNonlin 8.0 software.
observedProperty: clearance (mL/min/kg)
Write the answer as a number in mL/min/kg, unit excluded.

Form field clearance, entry CCN1CCN(Cc2ccc(Nc3ncc(F)c(-c4sc(NC5CCCC5)nc4C)n3)nc2)CC1 [Compound A] : 19.4

###

assayMethodText: Pharmacokinetic study of Compound A succinate in cynomolgus monkeys
Assay type: in vivo
setupConditions: cynomolgus monkey, plasma, iv; i.v. 2 mg/kg, female cynomolgus monkeys
observedProperty: clearance
Please answer in the form of a number followed by its unit of measurement.

Form field clearance, entry CCN1CCN(Cc2ccc(Nc3ncc(F)c(-c4sc(NC5CCCC5)nc4C)n3)nc2)CC1.O=C(O)CCC(=O)O [Compound A succinate] : 31 mL/min/kg

Ref: patent US20230399325A1
